- EXPERIMENT: Probe fluorescence ratio response to arachidonic acid relative to ADIFAB2
- Format: binding
- RUN_CONDITIONS: arachidonic acid; response relative to ADIFAB2
- Excerpt: In an alternate preferred embodiment, the protein is rI-FABP that has Ala substituted for Leu at position 72 (rI-FABP-L72A) with the resulting probe named ADIFAB2. […] ADIFAB2 also has an altered spectral response, making it especially useful for measurements of FFAu in blood samples (Apple et al, Clinical Proteomics, (2004) 1:41-44, U.S. patent application Ser. No. 10/670,958). […] The baseline value for this ratio, measured in the absence of analyte, is designated R0. […]
ASSAY_ENDPOINT: DR/DR AA
Please give the numeric answer without any surrounding text.

Example entries and their recorded answers appear below.
102N, 72A (protein, listed as Rattus norvegicus, PEPTIDE (1)...(131) wild-type rat intestinal fatty acid binding protein) AFDGTWKVDRNENYEKFMEKMGINVVKRKLGAHDNLKLTITQEGNKFTVKESSNFRNIDVVFELGVDFAYSAADGTELTGTWTMEGNKLVGKFKRVDNGKENIAVREISGNELIQTYTYEGVEAKRIFKKE; 0.64
104F3, 72A (protein, listed as Rattus norvegicus, PEPTIDE (1)...(131) wild-type rat intestinal fatty acid binding protein) AFDGTWKVDRNENYEKFMEKMGINVVKRKLGAHDNLKLTITQEGNKFTVKESSNFRNIDVVFELGVDFAYSAADGTELTGTWTMEGNKLVGKFKRVDNGKELIFVREISGNELIQTYTYEGVEAKRIFKKE; 0.71

Okay, now this molecule:
Lookup: Can you look up the measured DR/DR AA of 11Q, 72A (protein, listed as Rattus norvegicus, PEPTIDE (1)...(131) wild-type rat intestinal fatty acid binding protein) AFDGTWKVDRQENYEKFMEKMGINVVKRKLGAHDNLKLTITQEGNKFTVKESSNFRNIDVVFELGVDFAYSAADGTELTGTWTMEGNKLVGKFKRVDNGKELIAVREISGNELIQTYTYEGVEAKRIFKKE for me?
Found: 1.525
